Target: Muscarinic acetylcholine receptor M4 (Homo sapiens)
Settings: Flp-In-CHO, filed as positive allosteric modulator
Description: Positive allosteric modulation at human M4 mAChR stably expressed in Flp-In-CHO cells co-transfected with CAMYEL biosensor assessed as ACh-induced CAMYEL activation by measuring log of functional co-operativity by BRET assay
Criterion: log(activity) meeting or surpassing 1. Met: fulfilled. Not met: not fulfilled.

Record excerpt, results attached:
Cc1ccc(-c2cnn(CC3CCCC3)c2)c(-c2ccc3c(c2)C(=O)N(C)C3)n1
not fulfilled
Cc1ccc(-c2cnn(CCCN)c2)c(-c2ccc3c(c2)C(=O)N(C)C3)n1
not fulfilled
COC(=O)CCCn1cc(-c2ccc(C)nc2-c2ccc3c(c2)C(=O)N(C)C3)cn1
fulfilled
Cc1ccc(-c2cnn(CC3CCCC3)c2)c(-c2ccc3c(c2)C(=O)NC3)n1
fulfilled
Cc1ccc(-c2cnn(CCC#N)c2)c(-c2ccc3c(c2)C(=O)N(C)C3)n1
not fulfilled

Query string: Decide: is the reported value of log(activity) for CN1Cc2ccc(-c3nc4ccccc4cc3-c3cnn(CC4CCCC4)c3)cc2C1=O equal to or greater than 1?
Result string: fulfilled

Query string: Decide: is the reported value of log(activity) for Cc1ccc(-c2cnn(CCCCC#N)c2)c(-c2ccc3c(c2)C(=O)N(C)C3)n1 equal to or greater than 1?
Result string: fulfilled
